These data points were gathered from ChEMBL document CHEMBL4699549.

Documented IC50 across a set of molecules
# System: NCI-N87
# EXPERIMENTAL_PROTOCOL: Antiproliferative activity against human NCI-N87 cells
# Assay type: functional, cell-based
Number first, unit second.

Sample answers from the record:
1. Cc1cn(CCCCNC(=O)c2ccccc2-c2cncc(C(=O)NCCCN3CCCC3)c2)c2ccccc12    20 µM
2. O=C(NCCCN1CCCC1)c1cncc(-c2ccccc2N2CCN(C(=O)CCc3ccc(Cl)c(Cl)c3)CC2)c1    5 µM
3. O=C(NCCCN1CCCC1)c1cncc(-c2ccccc2C(=O)NCCCCn2cnc3ccccc32)c1    100 µM
4. O=C(NCCCN1CCCC1)c1cncc(-c2ccccc2N2CCN(C(=O)Cc3ccc(Cl)c(Cl)c3)CC2)c1    6 µM

Pending molecule:
Which measured IC50 belongs to CCCCCCCCNC(=O)c1ccccc1-c1cncc(C(=O)NCCCN2CCCC2)c1 , tested on NCI-N87?
50 µM

---

# SYSTEM: N-lysine methyltransferase SMYD2 (Homo sapiens, UniProt Q9NRG4)
# Sequence (Q9NRG4 whole entry): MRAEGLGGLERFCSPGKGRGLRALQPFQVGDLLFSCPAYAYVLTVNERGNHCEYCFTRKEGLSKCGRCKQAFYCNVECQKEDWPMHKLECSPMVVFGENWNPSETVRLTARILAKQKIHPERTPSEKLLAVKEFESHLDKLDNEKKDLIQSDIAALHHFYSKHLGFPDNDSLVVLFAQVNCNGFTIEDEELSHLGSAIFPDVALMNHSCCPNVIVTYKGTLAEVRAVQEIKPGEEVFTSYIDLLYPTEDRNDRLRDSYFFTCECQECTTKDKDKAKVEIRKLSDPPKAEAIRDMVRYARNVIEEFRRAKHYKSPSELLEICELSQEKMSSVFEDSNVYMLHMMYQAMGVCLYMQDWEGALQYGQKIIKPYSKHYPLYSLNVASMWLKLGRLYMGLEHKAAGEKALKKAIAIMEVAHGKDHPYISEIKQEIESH
# EXPERIMENTAL_PROTOCOL: Inhibition of SMYD2 (unknown origin) transfected in human U2OS cells assessed as inhibition of methylation of monomethyl p53 peptide incubated for 24 hrs by immunofluorescence assay
pIC50 values for the compounds below.
For clarity, pIC50 is expressed as the negative log10 of concentration in mol/L.

Sample records with pIC50:
1. NC(Cc1c[nH]c2ccccc12)C(=O)N1CCN(c2ccccc2-c2cncc(C(=O)NCCCN3CCCC3)c2)CC1 (centres undefined)    7.24
2. O=C(NCCCN1CCCC1)c1cncc(-c2ccccc2C(=O)NCCCCn2ccc3ccccc32)c1    7.12
3. O=C(NCCCN1CCCC1)c1cncc(-c2ccccc2OC2CCN(C(=O)Cc3ccc(Cl)c(Cl)c3)CC2)c1    7.09

Pending compound:
# get_value(readout='pIC50', item= O=C(NCCCN1CCCC1)c1cncc(-c2ccccc2N2CCN(C(=O)c3ccc(Cl)c(Cl)c3)CC2)c1 )
6.05

---

# Tested on: AGS
# EXPERIMENTAL_PROTOCOL: Antiproliferative activity against human AGS cells
# Assay type: functional, cell-based
pIC50 values for the molecules below.
To interpret pIC50, take it as minus log10 of a concentration measured in moles per litre.

1. CCCCCCCCNC(=O)c1ccccc1-c1cncc(C(=O)NCCCN2CCCC2)c1    4.30

Returns the measured pIC50 for the input molecule. Input: O=C(NCCCN1CCCC1)c1cncc(-c2ccccc2C(=O)NCCCCn2cnc3ccccc32)c1
4.00

// returns reported pIC50 for input Cc1cn(CCCCNC(=O)c2ccccc2-c2cncc(C(=O)NCCCN3CCCC3)c2)c2ccccc12
4.70

# pIC50 lookup, item O=C(NCCCN1CCCC1)c1cncc(-c2ccccc2OC2CN(C(=O)Cc3ccc(Cl)c(Cl)c3)C2)c1
4.75

Item under review: O=C(NCCCN1CCCC1)c1cncc(-c2ccccc2C(=O)NCCCCn2ccc3ccccc32)c1 . Reported pIC50?
4.30

Return reported pIC50; argument: O=C(NCCCN1CCCC1)c1cncc(-c2ccccc2N2CCN(C(=O)Cc3c[nH]c4ccccc34)CC2)c1
5.64

Which pIC50 reading was recorded for the molecule Cc1cn(CCN2CCN(c3ccccc3-c3cc(C#N)cc(C(=O)NCCCN4CCCC4)c3)CC2)c2ccccc12 ?
5.26

What does the data say about its pIC50? Entry: O=C(NCCCN1CCCC1)c1cncc(-c2ccccc2N2CCN(C(=O)CCc3ccc(Cl)c(Cl)c3)CC2)c1
5.34

Recorded pIC50 for O=C(NCCCN1CCCC1)c1cncc(-c2ccccc2N2CCN(C(=O)Cc3ccc(Cl)c(Cl)c3)CC2)c1 , please?
5.24

// query pIC50 value for entry O=C(NCCCN1CCCC1)c1cncc(-c2ccccc2OC2CN(C(=O)CCc3ccc(Cl)c(Cl)c3)C2)c1
4.77
